Test system: Prot. mirabilis
TEST PROTOCOL: ART strip test on urine sample pellets
Type: cell-based
CONDITIONS: 1 sample (r20)

MOLECULE	resistance profile predicted by ART
CO/N=C(\C(=O)N[C@@H]1C(=O)N2C(C(=O)O)=C(CSc3nc(=O)c(=O)[nH]n3C)CS[C@H]12)c1csc(N)n1 [Cro, Ceftriaxone]	S
CO/N=C(\C(=O)N[C@@H]1C(=O)N2C(C(=O)O)=C(COC(N)=O)CS[C@H]12)c1ccco1 [Cxm, Cefuroxime]	R
CC1(C)S[C@@H]2[C@H](NC(=O)[C@H](N)c3ccccc3)C(=O)N2[C@H]1C(=O)O [Amp, Ampicillin]	R
CC(C)(O/N=C(\C(=O)N[C@@H]1C(=O)N2C(C(=O)[O-])=C(C[n+]3ccccc3)CS[C@H]12)c1csc(N)n1)C(=O)O [Caz, Ceftazidime]	R
